Tested on: OVCAR-3 ovarian
Assay: NCI-60 one-dose screen, 48 h (100 = growth as untreated, 0 = no growth, -100 = all killed)
Settings: 10 µM
The panel holds about 83,000 compounds, 20% with a hit somewhere; the sample as a whole holds those more often.
Labelling: growth reported below 90% becomes Criterion met; at or above becomes Criterion not met.

Compound	Label
CC1=NN(C(=O)c2nn(-c3ccc(Cl)cc3)cc2O)C(=O)C1	Criterion met

Ask: Given the entry CC(=O)Nc1ccc(S(=O)(=O)c2ccnc3cc(Cl)ccc23)cc1 , would its reported growth be below 90%?
Reply: Criterion met

Ask: Given the entry Nc1ccn(Cc2nnc(CCC(=O)c3nc4ccccc4[nH]3)o2)c(=O)n1 , would its reported growth be below 90%?
Reply: Criterion not met

Ask: Given the entry C=CCN(CC=C)C(=O)[C@H](CC)[C@@H]1CC[C@@H](C)[C@@H]([C@H](C)[C@@H](O)[C@@H](C)C(=O)[C@H](CC)C2O[C@]3(C=C[C@@H](O)[C@]4(CC[C@@](C)([C@H]5CC[C@](O)(CC)[C@H](C)O5)O4)O3)[C@H](C)C[C@@H]2C)O1 (some centres undefined) , would its reported growth be below 90%?
Reply: Criterion met

Ask: Given the entry Clc1ccc(Cc2ccncc2)cc1 , would its reported growth be below 90%?
Reply: Criterion not met

Ask: Given the entry CC(=O)Nc1ccc(CC[C@H]2CCC/C=C/[C@@H]3C[C@H](O)C[C@H]3[C@H](O)/C=C/C(=O)O2)cc1 , would its reported growth be below 90%?
Reply: Criterion met

Ask: Given the entry COC1=CC(=O)OC(c2ccc(OC)cc2)C1 (centres undefined) , would its reported growth be below 90%?
Reply: Criterion not met

Ask: Given the entry COc1ccc(NC(=O)C2CC3C=CC2C3)c([N+](=O)[O-])c1 (centres undefined) , would its reported growth be below 90%?
Reply: Criterion not met

Ask: Given the entry CC(C)(C)OC(=O)N1CCc2c(sc3ncnc(N/N=C/c4ccc(Br)cc4)c23)C1 , would its reported growth be below 90%?
Reply: Criterion met

----------
System: UO-31 renal
Test: NCI-60 one-dose screen, 48 h (100 = growth as untreated, 0 = no growth, -100 = all killed)
Details: 10 µM
The panel holds about 83,000 compounds, 20% with a hit somewhere; the sample as a whole holds those more often.
Entries are sorted into classes by growth as follows: one = under 10%, two = from 10% up to 80%, three = 80% and over

Compound	Label
CC(=O)C1CCC2C3CC=C4CC(SC(=N)N)CCC4(C)C3CCC12C (stereo not drawn)	two
CCN(CC)CCNc1ccc(C)c2sc3cc(Cl)ccc3c(=O)c12	two
COc1ccc(/C=C2\CCCC3=C2NC(N)=NC3c2ccc(OC)c(OC)c2)cc1OC (stereo not drawn)	two

Ask: Where would CCN(CC)CCCC(C)N=C(C1=C(C(=NC(C)CCCN(CC)CC)c2cccc(OC)c2)C(=O)NC1=O)c1cccc(OC)c1 (stereo not drawn) land among the classes by reported growth?
Reply: one

Ask: Where would CC1/C=C/C=C/C=C/C=C/C=C/C=C/C=C/C(O[C@@H]2O[C@H](C)[C@H](O)[C@@H](O)[C@@H]2N)CC(O)C(C(=O)O)C(O)CC(=O)CC(O)CC(O)CC(O)CC(=O)CCCC(=O)CC(=O)OC1C(C)CC(C)C(O)CC(=O)c1ccc(N)cc1 (stereo partly drawn) land among the classes by reported growth?
Reply: one

Ask: Where would Nc1ccccc1NC(=O)c1ccc(CCCC(=O)Nc2ccc(C3CC3N)cc2)cc1 (stereo not drawn) land among the classes by reported growth?
Reply: two

Ask: Where would Cc1c(Cl)cccc1NC(=O)CN1CCOCC1 land among the classes by reported growth?
Reply: three

Ask: Where would Cc1cc(=O)n2nnc3cc(C(F)(F)F)ccc3n12 land among the classes by reported growth?
Reply: three

Ask: Where would CCCCN(CCCC)C(=O)[C@H](CC)[C@@H]1CC[C@@H](C)[C@@H]([C@H](C)[C@@H](O)[C@@H](C)C(=O)[C@H](CC)C2O[C@]3(C=C[C@@H](O)[C@]4(CC[C@@](C)([C@H]5CC[C@](O)(CC)[C@H](C)O5)O4)O3)[C@H](C)C[C@@H]2C)O1 (stereo partly drawn) land among the classes by reported growth?
Reply: one

Ask: Where would COc1cc2c(cc1NC(=O)C(Cl)Cl)-c1ccc(NC(=O)C(Cl)Cl)cc1C2 land among the classes by reported growth?
Reply: one

Ask: Where would CCn1c(SCc2ccc(C)cc2)nnc1-c1nn(-c2ccc(Cl)cc2Cl)c(-c2ccc(Cl)cc2)c1C land among the classes by reported growth?
Reply: one

----------
Tested on: LOX IMVI melanoma
Assay: NCI-60 one-dose screen, 48 h (100 = growth as untreated, 0 = no growth, -100 = all killed)
Settings: 10 µM
About 83,000 compounds went through this panel and 20% of them were active in at least one assay; those are over-represented in the sample as a whole. The source made the active and inactive calls. How the source made its calls: active means growth percent below 10; inactive means the rest.
Readout: growth

Recorded growth, per entry:
CNS(=O)(=O)Oc1ccc(-c2sc3cc(OS(=O)(=O)NC)ccc3c2C(=O)c2ccc(OCCN3CCCCC3)cc2)cc1 32.8% (inactive)
CNC(=O)c1cc(Oc2ccc3c(c2)sc2nc(-c4ccc(NC(=O)Nc5ccc(Cl)c(C(F)(F)F)c5)cc4)cn23)ccn1 76.1% (inactive)
Cn1c2ccccc2c2c3[nH][nH]c(=O)c3c3c4ccccc4[nH]c3c21 -30.3% (active)

Ask: Reported growth for O=C(N/N=C/c1ccc(Cl)cc1)c1ccc(Cc2n[nH]c(=O)c3cccnc23)cc1 : what is it?
Reply: 100% (inactive)

Ask: Reported growth for Cc1noc(C)c1CSc1ccccc1C(=O)N1CCN(c2cccc(C(F)(F)F)c2)CC1 : what is it?
Reply: 74.9% (inactive)

Ask: Reported growth for CN(C)c1nc(N)c2nccnc2n1 : what is it?
Reply: 95.1% (inactive)

Ask: Reported growth for CCOC(=O)N/N=C/c1ccc(OC)c(OC)c1 : what is it?
Reply: 102% (inactive)

Ask: Reported growth for COc1ccc(-c2cc(-c3ccccc3)nc(SCCCCCCC(=O)NO)n2)cc1 : what is it?
Reply: 13.1% (inactive)

Ask: Reported growth for CC(=O)Nc1ccc2c(c1)C(=O)c1cccc(C(=O)O)c1-2 : what is it?
Reply: 109% (inactive)

Ask: Reported growth for COc1cc(/C=C/c2cc(/C=C/c3ccc(O)c(OC)c3)[nH]c(=O)n2)ccc1O : what is it?
Reply: 49% (inactive)

----------
Tested on: A498 renal
Assay: NCI-60 one-dose screen, 48 h (100 = growth as untreated, 0 = no growth, -100 = all killed)
Settings: 10 µM
Compounds without any hit were thinned out: in the full panel of roughly 83,000, 20% have a hit.
List of growth values.
Express your answer in %, writing the number without its unit.

Ask: State its growth on A498 renal: CC(C)(C)c1nn(-c2ccccc2)c2c1CC1(CN2Cc2ccc(Cl)cc2)C(=O)c2ccccc2C1=O
Reply: 76.5

Ask: State its growth on A498 renal: N#Cc1ccc(C(=O)CSc2nccc(Nc3ccc(C(=O)O)cc3)n2)cc1
Reply: 95.7

Ask: State its growth on A498 renal: C=CCn1c(SCC(=O)Nc2ccc(C(=O)/C=C/c3cc(OC)c(OC)c(OC)c3)cc2)nnc1-c1cc(-c2ccc(Cl)cc2)nc2ccccc12
Reply: 80.6

Ask: State its growth on A498 renal: CS(=O)(=O)c1nccc(-c2c(-c3cccc(OCCc4ccccc4)c3)nc3sccn23)n1
Reply: 91.7

----------
Test system: T-47D breast
Assay: NCI-60 one-dose screen, 48 h (100 = growth as untreated, 0 = no growth, -100 = all killed)
Conditions: 10 µM
About 83,000 compounds went through this panel and 20% of them were active in at least one assay; those are over-represented in the sample as a whole.
Response key: condition met means growth >= 80%; condition not met means growth < 80%.

Would you please look over these solved cases?
Compound	Label
C#C[C@]1(O)CCC2C3CCc4cc(OC5CCCC5)ccc4C3CC[C@@]21C (some centres undefined)	condition met
COc1cc2cc(Oc3ccc(NC(=O)c4cc(C(F)(F)F)cc(C(F)(F)F)c4)cc3)c(C)nc2cc1OC	condition met
CCOC(=O)c1cc(C(=O)c2cc(OC)c(OC)c(OC)c2)n2ncc3ccccc3c12	condition not met
Cn1cnc([N+](=O)[O-])c1/C=C1\Oc2ccc(Br)cc2C1=O	condition met
CS(=O)(=O)c1nccc(-c2c(-c3ccc(OCCc4ccccc4)cc3)nc3sccn23)n1	condition met
O=C(N/N=C/c1ccc(Cl)cc1)c1ccccc1Nc1cccc(C(F)(F)F)c1	condition met

Next item in the queue.
Ask: Kindly determine if growth recorded for C[C@H]1[C@H](OC(=O)CCC(=O)O)O[C@@H]2O[C@]3(C)CC[C@H]4[C@H](C)CC[C@@H]1[C@@]24OO3 is above or exactly 80%.
Reply: condition not met

Origin of values: PubChem BioAssay (NCI)
